Cited source for all entries: paper PMC5540273

# Test system: IKK-epsilon
# Construct: gene IKBKE
# assay_setup: concentration: 1 μM, replicates: in singlicate; n = 1;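 note: KINOMEscan kinase panel screen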
reported_metric: %Inh (%)

1) Cc1nnc(-c2ccc(C)c(-c3ccc(C(=O)Nc4ccc(NS(C)(=O)=O)cc4)cc3)c2)o1 31
2) NS(=O)(=O)c1cccc(-c2ccc3ncc(N4CCOCC4)nc3c2)c1 34
3) COc1cc2c(cc1OCCN1CCN(C)CC1)ncc1c3ccc(C#N)cc3[nH]c21 70
4) O=c1cc(N2CCOCC2)nc2n(Cc3cccc(C(F)(F)F)c3)ccn12 7
5) COCCNC(=O)c1ccc(-c2cc(C(=O)NC3CC3)cc(F)c2C)cc1 4

* * *

# Test system: RSK2(Kin.Dom.1-N-terminal)
# Construct: gene RPS6KA3
# assay_setup: concentration: 1 μM, replicates: in singlicate; n = 1
Catalogue of %Inh values
reported_metric: %Inh (%)

1) Cc1ccc(C(=O)NCC(N)=O)cc1-n1c(C)cc(OCc2ccc(F)cc2F)c(Br)c1=O 0
2) CNc1ncnc2[nH]ncc12 46
3) O=C(Nc1cccc(-c2nn3ncccc3c2-c2ccnc(Nc3cccc(C(F)(F)F)c3)n2)c1)c1c(F)cccc1F 22
4) O=c1cc(N2CCOCC2)nc2n(Cc3cccc4ccccc34)ccn12 0
5) Cc1cccc(Cn2ccn3c(=O)cc(N4CCOCC4)nc23)c1 11

* * *

# Test system: CDK7
# assay_setup: concentration: 1 μM, replicates: in singlicate; n = 1
reported_metric: %Inh (%)

compound	reported_metric	unit_name	numeric_value
NS(=O)(=O)CCc1cccc(Nc2nccc(-c3c(-c4cccc(NC(=O)c5c(F)cccc5F)c4)nn4ccccc34)n2)c1	%Inh	%	0
Cl.Nc1ncnc2occ(-c3ccc(NC(=O)Nc4cc(C(F)(F)F)ccc4F)cc3)c12	%Inh	%	97.8
CC(C)Oc1ccc2c(-c3ccnc(Nc4ccc(N5CCN(C)CC5)cc4)n3)cnn2n1	%Inh	%	99.8
O=c1cc(N2CCOCC2)nc2n(Cc3cccc(F)c3)ccn12	%Inh	%	0
COc1cc(Nc2nccc(N3CCC(NC(=O)c4cccc(NC(C)=O)c4)C3)n2)cc(OC)c1OC (stereo not drawn)	%Inh	%	9
Fc1ccc(-c2ncn(CCCN3CCOCC3)c2-c2ccccn2)cc1	%Inh	%	0
COc1ccc(Nc2ncc(C#N)c(Nc3ccccc3C(N)=O)n2)cc1N1CCN(C)CC1.Cl	%Inh	%	99.8
O=c1cc(N2CCOCC2)nc2n(Cc3cccc4ccccc34)ccn12	%Inh	%	0
CCc1nc(-c2cccc(C)c2)c(-c2ccnc(NCc3ccccc3)c2)s1	%Inh	%	0
CN(C1=C(c2ccccc2)C(=O)NC1=O)c1ccccc1	%Inh	%	15
COC(=O)Nc1nc2cc(Oc3ccc(NC(=O)Nc4cc(F)ccc4F)cc3)ccc2[nH]1.Cl	%Inh	%	37
COc1cc2ncn(-c3cc(OCc4sccc4Cl)c(C(N)=O)s3)c2cc1OC	%Inh	%	0
N#Cc1ccc(-c2cc(-c3c[nH]nc3-c3ccccn3)ccn2)cc1	%Inh	%	0
O=C(Nc1n[nH]c2cc(-c3cccc(F)c3)ccc12)C1CC1	%Inh	%	0
COc1ccc(Nc2nccc(N3CCC(NC(=O)Nc4cc(C)ccc4C)C3)n2)cc1 (stereo not drawn)	%Inh	%	0
Nc1nc(-c2ccc3c(N)n[nH]c3c2)cc(N2CCCC2)n1	%Inh	%	0
Fc1ccc(-c2nn3c(OCC(F)(F)F)cccc3c2-c2ccncc2)cc1	%Inh	%	0
COCCNC(=O)c1ccc(-c2cc(C(=O)NC3CC3)cc(F)c2C)cc1	%Inh	%	25
